# Experiment Summary: Cytotoxicity test against mammalian cells (L6)
# Measurement Context: rat
Test Readout: IC50 (ng/mL)
Supply the numeric figure in ng/mL, leaving out any unit text.

Please look up its IC50: COc1cc([C@@H]2c3cc4c(cc3[C@H](O)[C@H]3COC(=O)[C@H]23)OCO4)cc(OC)c1OC [podophyllotoxin, reference compound]
7
